The entries below come with measured IC50 values attached.
# MEASURED_TARGET: CAv1.2 (Homo sapiens)
# Sequence (Q13936 whole entry): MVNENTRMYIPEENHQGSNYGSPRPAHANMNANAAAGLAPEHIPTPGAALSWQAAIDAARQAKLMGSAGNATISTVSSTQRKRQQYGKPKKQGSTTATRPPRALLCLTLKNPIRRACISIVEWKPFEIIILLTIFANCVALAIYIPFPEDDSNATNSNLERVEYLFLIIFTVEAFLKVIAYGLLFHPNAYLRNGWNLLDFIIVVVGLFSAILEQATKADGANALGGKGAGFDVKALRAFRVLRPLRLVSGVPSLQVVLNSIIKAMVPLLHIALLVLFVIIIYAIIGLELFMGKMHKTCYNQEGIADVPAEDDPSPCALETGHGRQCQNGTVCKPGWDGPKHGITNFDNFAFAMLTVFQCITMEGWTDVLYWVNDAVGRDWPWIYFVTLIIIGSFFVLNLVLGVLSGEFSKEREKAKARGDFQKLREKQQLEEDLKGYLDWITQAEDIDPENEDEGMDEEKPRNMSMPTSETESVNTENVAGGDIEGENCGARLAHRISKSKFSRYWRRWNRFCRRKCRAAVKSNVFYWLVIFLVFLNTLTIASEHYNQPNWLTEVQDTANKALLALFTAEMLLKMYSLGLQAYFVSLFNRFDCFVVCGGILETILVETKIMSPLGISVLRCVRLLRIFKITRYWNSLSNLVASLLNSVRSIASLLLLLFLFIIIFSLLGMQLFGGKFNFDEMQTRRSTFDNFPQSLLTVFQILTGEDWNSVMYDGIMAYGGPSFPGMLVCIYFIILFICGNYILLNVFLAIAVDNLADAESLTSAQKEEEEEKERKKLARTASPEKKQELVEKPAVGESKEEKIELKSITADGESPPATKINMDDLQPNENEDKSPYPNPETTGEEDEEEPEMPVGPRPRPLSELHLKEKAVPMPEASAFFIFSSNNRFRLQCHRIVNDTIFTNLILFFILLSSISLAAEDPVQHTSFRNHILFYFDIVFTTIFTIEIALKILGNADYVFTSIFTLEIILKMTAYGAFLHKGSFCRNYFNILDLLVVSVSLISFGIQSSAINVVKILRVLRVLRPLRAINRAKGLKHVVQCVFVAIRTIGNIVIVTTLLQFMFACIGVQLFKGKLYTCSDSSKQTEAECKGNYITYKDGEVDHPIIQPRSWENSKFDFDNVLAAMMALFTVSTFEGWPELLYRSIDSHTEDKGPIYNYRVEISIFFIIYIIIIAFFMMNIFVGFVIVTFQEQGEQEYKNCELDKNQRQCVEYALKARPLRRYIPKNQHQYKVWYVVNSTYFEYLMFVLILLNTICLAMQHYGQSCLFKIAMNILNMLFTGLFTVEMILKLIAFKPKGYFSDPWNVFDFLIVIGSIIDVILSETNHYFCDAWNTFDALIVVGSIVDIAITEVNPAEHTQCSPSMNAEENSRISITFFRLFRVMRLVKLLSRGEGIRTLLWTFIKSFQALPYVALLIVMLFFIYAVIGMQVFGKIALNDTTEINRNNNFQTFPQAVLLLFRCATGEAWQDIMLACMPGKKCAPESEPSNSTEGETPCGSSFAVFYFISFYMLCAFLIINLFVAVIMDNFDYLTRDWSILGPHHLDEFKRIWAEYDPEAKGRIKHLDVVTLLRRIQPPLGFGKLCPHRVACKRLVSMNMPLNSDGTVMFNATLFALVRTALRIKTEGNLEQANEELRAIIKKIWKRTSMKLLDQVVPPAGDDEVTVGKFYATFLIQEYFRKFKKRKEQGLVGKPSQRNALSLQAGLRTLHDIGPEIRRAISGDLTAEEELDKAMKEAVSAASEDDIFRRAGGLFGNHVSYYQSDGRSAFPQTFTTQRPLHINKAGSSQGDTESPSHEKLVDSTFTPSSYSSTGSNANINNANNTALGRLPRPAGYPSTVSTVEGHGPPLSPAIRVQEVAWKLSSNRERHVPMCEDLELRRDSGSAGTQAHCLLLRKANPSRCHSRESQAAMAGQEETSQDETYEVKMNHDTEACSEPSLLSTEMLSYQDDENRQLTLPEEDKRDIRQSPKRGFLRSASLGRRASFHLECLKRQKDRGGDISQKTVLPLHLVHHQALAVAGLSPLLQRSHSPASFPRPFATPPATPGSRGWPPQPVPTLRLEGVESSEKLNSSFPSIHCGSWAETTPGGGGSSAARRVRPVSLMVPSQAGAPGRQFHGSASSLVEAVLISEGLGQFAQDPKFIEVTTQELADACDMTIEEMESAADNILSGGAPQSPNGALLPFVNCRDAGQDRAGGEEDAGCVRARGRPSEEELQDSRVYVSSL
# Sequence (P54289 25-1103 partner): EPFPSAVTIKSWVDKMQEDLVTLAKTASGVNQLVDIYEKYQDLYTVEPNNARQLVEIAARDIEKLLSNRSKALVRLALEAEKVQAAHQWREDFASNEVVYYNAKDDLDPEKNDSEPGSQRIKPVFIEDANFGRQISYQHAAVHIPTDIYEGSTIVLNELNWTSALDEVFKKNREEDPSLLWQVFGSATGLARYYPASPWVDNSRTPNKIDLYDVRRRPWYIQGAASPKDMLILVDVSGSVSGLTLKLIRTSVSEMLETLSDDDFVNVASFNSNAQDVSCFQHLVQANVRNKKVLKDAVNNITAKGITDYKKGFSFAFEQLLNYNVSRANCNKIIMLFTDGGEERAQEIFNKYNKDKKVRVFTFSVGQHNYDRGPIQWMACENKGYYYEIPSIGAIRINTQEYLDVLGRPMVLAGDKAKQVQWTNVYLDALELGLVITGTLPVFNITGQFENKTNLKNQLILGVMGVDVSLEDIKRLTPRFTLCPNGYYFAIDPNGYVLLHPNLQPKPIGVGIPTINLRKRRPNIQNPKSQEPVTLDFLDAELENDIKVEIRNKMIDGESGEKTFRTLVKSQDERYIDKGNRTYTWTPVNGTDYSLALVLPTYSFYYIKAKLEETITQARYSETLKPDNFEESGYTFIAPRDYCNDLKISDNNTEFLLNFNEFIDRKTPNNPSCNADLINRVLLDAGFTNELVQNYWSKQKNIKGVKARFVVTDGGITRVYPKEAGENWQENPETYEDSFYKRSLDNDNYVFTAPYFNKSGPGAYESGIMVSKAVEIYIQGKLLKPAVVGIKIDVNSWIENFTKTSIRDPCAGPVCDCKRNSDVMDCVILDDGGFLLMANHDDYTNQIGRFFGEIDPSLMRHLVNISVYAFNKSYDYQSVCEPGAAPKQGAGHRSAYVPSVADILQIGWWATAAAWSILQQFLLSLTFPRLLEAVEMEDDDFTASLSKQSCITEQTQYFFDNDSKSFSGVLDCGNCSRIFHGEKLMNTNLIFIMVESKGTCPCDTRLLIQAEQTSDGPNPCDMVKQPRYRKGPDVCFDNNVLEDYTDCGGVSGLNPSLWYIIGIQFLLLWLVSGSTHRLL
# Sequence (Q08289 whole entry partner): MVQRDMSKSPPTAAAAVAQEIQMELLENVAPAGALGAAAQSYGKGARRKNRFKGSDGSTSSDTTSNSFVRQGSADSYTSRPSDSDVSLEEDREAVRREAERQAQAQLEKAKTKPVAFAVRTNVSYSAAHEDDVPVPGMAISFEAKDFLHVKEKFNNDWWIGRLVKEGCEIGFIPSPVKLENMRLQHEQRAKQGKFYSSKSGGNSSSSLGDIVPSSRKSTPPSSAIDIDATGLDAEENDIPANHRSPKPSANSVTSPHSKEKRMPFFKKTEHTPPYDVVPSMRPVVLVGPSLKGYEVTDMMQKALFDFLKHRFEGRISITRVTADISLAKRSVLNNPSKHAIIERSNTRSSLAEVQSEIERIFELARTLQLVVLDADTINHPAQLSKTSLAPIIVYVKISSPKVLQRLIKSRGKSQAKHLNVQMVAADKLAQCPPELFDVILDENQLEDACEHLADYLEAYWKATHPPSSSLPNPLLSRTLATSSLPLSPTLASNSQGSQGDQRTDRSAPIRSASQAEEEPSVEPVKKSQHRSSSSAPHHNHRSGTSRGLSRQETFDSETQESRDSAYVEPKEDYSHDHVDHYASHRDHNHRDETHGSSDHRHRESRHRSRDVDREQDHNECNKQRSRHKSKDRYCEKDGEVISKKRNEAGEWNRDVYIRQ
# ASSAY_COMMENT: FLIPR data, CAv1.2 channel blocking (Table 6)
# Format: cell-based
# PARTICULARS: inactivated state, read-out: CAv1.2 IC50 Inact.
Field: numeric (µM). Do not append units.

// worked examples, IC50 included
[[record]]
molecule = "CC(C)(C[C@H]1C[C@H](NC(=O)c2cnc(C(F)(F)F)nc2)C1)S(=O)(=O)c1cccc(C(F)(F)F)c1"
outcome_measure = "IC50"
unit_annotation = "µM"
reported_result = 4.57

[[record]]
molecule = "CC(C)([C@H]1C[C@H](NC(=O)c2ccc(C(F)(F)F)nc2)C1)S(=O)(=O)c1cccc(C(F)(F)F)c1"
outcome_measure = "IC50"
unit_annotation = "µM"
reported_result = 5.99

[[record]]
molecule = "CC(C)(C1CC(CNC(=O)c2ccc(Cl)c(F)c2)C1)S(=O)(=O)c1cccc(C(F)(F)F)c1 (centres unmarked)"
outcome_measure = "IC50"
unit_annotation = "µM"
reported_result = 0.38

[[record]]
molecule = "CC(C)([C@H]1C[C@H](NS(=O)(=O)c2ccc(C(F)(F)F)cc2Cl)C1)S(=O)(=O)c1cccc(C(F)(F)F)c1"
outcome_measure = "IC50"
unit_annotation = "µM"
reported_result = 2.29


Task: Given `CC(C)(C[C@H]1C[C@@H](NC(=O)c2ccc(Cl)cn2)C1)S(=O)(=O)c1cccc(C(F)(F)F)c1` , respond with its IC50.
Result: 3.99

Task: Given `CC(C)([C@H]1C[C@H](NC(=O)c2cc(C(F)(F)F)n[nH]2)C1)S(=O)(=O)c1cccc(OC(F)(F)F)c1` , respond with its IC50.
Result: 3.3

Task: Given `CC(C)([C@H]1C[C@H](NS(=O)(=O)c2ccc(F)c(Cl)c2)C1)S(=O)(=O)c1cc(F)cc(C(F)(F)F)c1` , respond with its IC50.
Result: 2.76

Task: Given `O=C(NC[C@H]1C[C@H](S(=O)(=O)c2cccc(OC(F)(F)F)c2)C1)c1ccc(OCC(F)(F)F)nc1` , respond with its IC50.
Result: 2.48

Task: Given `CC(C)([C@H]1C[C@H](NC(=O)c2ccc(F)c(Cl)c2)C1)S(=O)(=O)c1cccc(OC(F)(F)F)c1` , respond with its IC50.
Result: 0.6

Task: Given `CC(C)([C@H]1C[C@@H](NS(=O)(=O)c2ccc(C(F)(F)F)cc2Cl)C1)S(=O)(=O)c1cc(F)cc(C(F)(F)F)c1` , respond with its IC50.
Result: 1.94

Task: Given `CC(C)([C@H]1C[C@@H](CNC(=O)c2ccnc(C(F)(F)F)c2)C1)S(=O)(=O)c1cccc(C(F)(F)F)c1` , respond with its IC50.
Result: 2.39

Task: Given `CC(C)([C@H]1C[C@H](NS(=O)(=O)c2ccc(C(F)(F)F)nc2)C1)S(=O)(=O)c1cc(F)cc(C(F)(F)F)c1` , respond with its IC50.
Result: 4.32
